These data points were gathered from ChEMBL document CHEMBL1201862.

# System: LOX IMVI
# Protocol: NCI tumour cell line growth inhibition, 48 h
Active and inactive are the calls of the source. Rule as the data show it: active = GI50 up to about 1.1 µM and inactive = higher.
Assay Readout: GI50

Sample Cc1ccc(/C=N/n2c(=O)[nH]c3ccccc3c2=O)cc1 ; GI50 observed: > 100 µM (inactive)

Sample CC(=O)c1ccc(NC(=O)C(=O)C(C#N)CC(C)(C)C=O)cc1 (stereo not drawn) ; GI50 observed: > 100 µM (inactive)

Sample COc1ccc(-c2c3c(n(C4OC(CO)C(O)C(O)C4O)c(=S)c2C#N)CCCC3)cc1 (stereo not drawn) ; GI50 observed: > 100 µM (inactive)

Sample NC(=S)Nc1nc(=S)[nH]c2c1SC1=N/C(=C\c3ccco3)C(=O)N12 ; GI50 observed: 40.6 µM (inactive)

Sample CC1=C(O)C(=O)[C@@H]2O[C@@H]2C1=O ; GI50 observed: 12.5 µM (inactive)

Sample O=C1NC(=O)C2=C1CCC2O (stereo not drawn) ; GI50 observed: > 100 µM (inactive)

Sample COc1cc(Nc2cnc3cc(F)c(F)cc3n2)cc(OC)c1OC ; GI50 observed: 40 µM (inactive)

Sample CC1=CC(=O)c2ccc(C)cc2C1=O ; GI50 observed: 5.09 µM (inactive)
